system: RERF-LC-KJ; test: relative viability (nuclei count vs DMSO), 5 days (fraction); higher = more cells survive; conditions: first compound 2.53 µM
property_name: relative viability
Field format: numeric only.

Ask | Look up relative viability of COc1nc(C)cnc1NS(=O)(=O)c1cccnc1-c1ccc(-c2nnco2)cc1 [Zibotentan] + Cc1nc(Nc2ncc(C(=O)Nc3c(C)cccc3Cl)s2)cc(N2CCN(CCO)CC2)n1 [Dasatinib] (partner 0.075 µM) and report it.
Reply | 0.749

Ask | Look up relative viability of O=c1cc(-c2cccc3c2Sc2ccccc2S3)oc(N2CCOCC2)c1 + COc1cc2c(Oc3ccc(NC(=O)C4(C(=O)Nc5ccc(F)cc5)CC4)cc3F)ccnc2cc1OCCCN1CCOCC1 [Foretinib] (partner 0.25 µM) and report it.
Reply | 0.995

Ask | Look up relative viability of O=c1cc(-c2cccc3c2Sc2ccccc2S3)oc(N2CCOCC2)c1 + COc1cccc2cc(-c3nc([C@H]4CC[C@H](C(=O)O)CC4)n4ncnc(N)c34)[nH]c12 [OSI-027] (partner 0.5 µM) and report it.
Reply | 0.499

Ask | Look up relative viability of O=c1cc(-c2cccc3c2Sc2ccccc2S3)oc(N2CCOCC2)c1 + CC1(C)CCC(c2ccc(Cl)cc2)=C(CN2CCN(c3ccc(C(=O)NS(=O)(=O)c4ccc(N[C@H](CCN5CCOCC5)CSc5ccccc5)c(S(=O)(=O)C(F)(F)F)c4)cc3)CC2)C1 [Navitoclax] (partner 0.5 µM) and report it.
Reply | 0.798

* * *

I'd be grateful if you could share measured relative viability for these entries.
tested on: UMC-11; assay: relative viability (nuclei count vs DMSO), 5 days (fraction); higher = more cells survive; conditions: first compound 1 µM
Field format: numeric only.

Ask | Look up relative viability of CCN(CC)CCCCNc1ncc2cc(-c3cc(OC)cc(OC)c3)c(NC(=O)NC(C)(C)C)nc2n1 + Cc1cc(Nc2cc(N3CCN(C)CC3)nc(Sc3ccc(NC(=O)C4CC4)cc3)n2)n[nH]1 [Tozasertib] (partner 0.1 µM) and report it.
Reply | 0.196

Ask | Look up relative viability of O=c1cc(N2CCOCC2)oc2c(-c3cccc4c3sc3ccccc34)cccc12 + O=C(c1cc(Cc2n[nH]c(=O)c3ccccc23)ccc1F)N1CCN(C(=O)C2CC2)CC1 [Olaparib] (partner 8 µM) and report it.
Reply | 0.404

Ask | Look up relative viability of CCN(CC)CCCCNc1ncc2cc(-c3cc(OC)cc(OC)c3)c(NC(=O)NC(C)(C)C)nc2n1 + CC(=O)c1c(C)c2cnc(Nc3ccc(N4CCNCC4)cn3)nc2n(C2CCCC2)c1=O [Palbociclib] (partner 0.5 µM) and report it.
Reply | 0.343

Ask | Look up relative viability of O=c1cc(N2CCOCC2)oc2c(-c3cccc4c3sc3ccccc34)cccc12 + Nc1ncn([C@H]2C[C@H](O)[C@@H](CO)O2)c(=O)n1 [Decitabine] (partner 2 µM) and report it.
Reply | 0.687

Ask | Look up relative viability of O=c1cc(N2CCOCC2)oc2c(-c3cccc4c3sc3ccccc34)cccc12 + CS(=O)(=O)N1CCN(Cc2cc3nc(-c4cccc5[nH]ncc45)nc(N4CCOCC4)c3s2)CC1 [Pictilisib] (partner 1 µM) and report it.
Reply | 0.796

Ask | Look up relative viability of CCN(CC)CCCCNc1ncc2cc(-c3cc(OC)cc(OC)c3)c(NC(=O)NC(C)(C)C)nc2n1 + C[C@]1(O)C[C@@H](c2nc(-c3ccc4ccc(-c5ccccc5)nc4c3)c3c(N)nccn32)C1 [Linsitinib] (partner 1 µM) and report it.
Reply | 0.99

Ask | Look up relative viability of CCN(CC)CCCCNc1ncc2cc(-c3cc(OC)cc(OC)c3)c(NC(=O)NC(C)(C)C)nc2n1 + COc1cccc2cc(-c3nc([C@H]4CC[C@H](C(=O)O)CC4)n4ncnc(N)c34)[nH]c12 [OSI-027] (partner 0.5 µM) and report it.
Reply | 0.443

Ask | Look up relative viability of O=c1cc(N2CCOCC2)oc2c(-c3cccc4c3sc3ccccc34)cccc12 + Nc1nc2[nH]cc(CCc3ccc(C(=O)N[C@@H](CCC(=O)O)C(=O)O)cc3)c2c(=O)[nH]1 [Pemetrexed] (partner 0.2 µM) and report it.
Reply | 0.789

Ask | Look up relative viability of CCN(CC)CCCCNc1ncc2cc(-c3cc(OC)cc(OC)c3)c(NC(=O)NC(C)(C)C)nc2n1 + CC(C)C[C@H](NC(=O)[C@H](Cc1ccccc1)NC(=O)c1cnccn1)B(O)O [Bortezomib] (partner 0.002 µM) and report it.
Reply | 0.544

Ask | Look up relative viability of CCN(CC)CCCCNc1ncc2cc(-c3cc(OC)cc(OC)c3)c(NC(=O)NC(C)(C)C)nc2n1 + Cc1nc(Nc2ncc(C(=O)Nc3c(C)cccc3Cl)s2)cc(N2CCN(CCO)CC2)n1 [Dasatinib] (partner 0.075 µM) and report it.
Reply | 0.405

Ask | Look up relative viability of CCN(CC)CCCCNc1ncc2cc(-c3cc(OC)cc(OC)c3)c(NC(=O)NC(C)(C)C)nc2n1 + O=C(c1cc(Cc2n[nH]c(=O)c3ccccc23)ccc1F)N1CCN(C(=O)C2CC2)CC1 [Olaparib] (partner 8 µM) and report it.
Reply | 0.422

* * *

system: NCI-H1355; test: relative viability (nuclei count vs DMSO), 5 days (fraction); higher = more cells survive; settings: first compound 2.53 µM
property_name: relative viability

Ask | Look up relative viability of COc1nc(C)cnc1NS(=O)(=O)c1cccnc1-c1ccc(-c2nnco2)cc1 [Zibotentan] + O=C(c1cc(Cc2n[nH]c(=O)c3ccccc23)ccc1F)N1CCN(C(=O)C2CC2)CC1 [Olaparib] (partner 8 µM) and report it.
Reply | 0.756

Ask | Look up relative viability of COc1nc(C)cnc1NS(=O)(=O)c1cccnc1-c1ccc(-c2nnco2)cc1 [Zibotentan] + Cc1nc(Nc2ncc(C(=O)Nc3c(C)cccc3Cl)s2)cc(N2CCN(CCO)CC2)n1 [Dasatinib] (partner 0.075 µM) and report it.
Reply | 0.832

Ask | Look up relative viability of O=c1cc(-c2cccc3c2Sc2ccccc2S3)oc(N2CCOCC2)c1 + CC(C)C[C@H](NC(=O)[C@H](Cc1ccccc1)NC(=O)c1cnccn1)B(O)O [Bortezomib] (partner 0.002 µM) and report it.
Reply | 1.16

Ask | Look up relative viability of COc1nc(C)cnc1NS(=O)(=O)c1cccnc1-c1ccc(-c2nnco2)cc1 [Zibotentan] + CC(C)C[C@H](NC(=O)[C@H](Cc1ccccc1)NC(=O)c1cnccn1)B(O)O [Bortezomib] (partner 0.002 µM) and report it.
Reply | 1.24

* * *

tested on: EPLC-272H; assay: relative viability (nuclei count vs DMSO), 5 days (fraction); higher = more cells survive; conditions: first compound 0.08 µM
I'd be grateful if you could share measured relative viability for these entries.
Field format: numeric only.

Ask | Enter relative viability (test system EPLC-272H) for COc1nc(C)cnc1NS(=O)(=O)c1cccnc1-c1ccc(-c2nnco2)cc1 [Zibotentan] + NC(=O)Nc1cc(-c2cccc(F)c2)sc1C(=O)N[C@H]1CCCNC1 [AZD7762] (partner 0.2 µM)
Reply | 0.217

Ask | Enter relative viability (test system EPLC-272H) for O=c1cc(-c2cccc3c2Sc2ccccc2S3)oc(N2CCOCC2)c1 + COc1cc2c(Oc3ccc(NC(=O)C4(C(=O)Nc5ccc(F)cc5)CC4)cc3F)ccnc2cc1OCCCN1CCOCC1 [Foretinib] (partner 0.25 µM)
Reply | 0.6

Ask | Enter relative viability (test system EPLC-272H) for O=c1cc(-c2cccc3c2Sc2ccccc2S3)oc(N2CCOCC2)c1 + CC(=O)c1c(C)c2cnc(Nc3ccc(N4CCNCC4)cn3)nc2n(C2CCCC2)c1=O [Palbociclib] (partner 0.5 µM)
Reply | 0.34

Ask | Enter relative viability (test system EPLC-272H) for COc1nc(C)cnc1NS(=O)(=O)c1cccnc1-c1ccc(-c2nnco2)cc1 [Zibotentan] + CC(C)C[C@H](NC(=O)[C@H](Cc1ccccc1)NC(=O)c1cnccn1)B(O)O [Bortezomib] (partner 0.002 µM)
Reply | 1.04

Ask | Enter relative viability (test system EPLC-272H) for COc1nc(C)cnc1NS(=O)(=O)c1cccnc1-c1ccc(-c2nnco2)cc1 [Zibotentan] + CS(=O)(=O)N1CCN(Cc2cc3nc(-c4cccc5[nH]ncc45)nc(N4CCOCC4)c3s2)CC1 [Pictilisib] (partner 1 µM)
Reply | 0.363

Ask | Enter relative viability (test system EPLC-272H) for COc1nc(C)cnc1NS(=O)(=O)c1cccnc1-c1ccc(-c2nnco2)cc1 [Zibotentan] + CCNC(=O)c1noc(-c2cc(C(C)C)c(O)cc2O)c1-c1ccc(CN2CCOCC2)cc1 [Luminespib] (partner 0.01 µM)
Reply | 0.234

Ask | Enter relative viability (test system EPLC-272H) for COc1nc(C)cnc1NS(=O)(=O)c1cccnc1-c1ccc(-c2nnco2)cc1 [Zibotentan] + C[C@@H](Oc1cc(-c2cnn(C3CCNCC3)c2)cnc1N)c1c(Cl)ccc(F)c1Cl [Crizotinib] (partner 1 µM)
Reply | 0.841

Ask | Enter relative viability (test system EPLC-272H) for COc1nc(C)cnc1NS(=O)(=O)c1cccnc1-c1ccc(-c2nnco2)cc1 [Zibotentan] + Cc1nc(Nc2ncc(C(=O)Nc3c(C)cccc3Cl)s2)cc(N2CCN(CCO)CC2)n1 [Dasatinib] (partner 0.075 µM)
Reply | 0.375

Ask | Enter relative viability (test system EPLC-272H) for O=c1cc(-c2cccc3c2Sc2ccccc2S3)oc(N2CCOCC2)c1 + COc1cccc2cc(-c3nc([C@H]4CC[C@H](C(=O)O)CC4)n4ncnc(N)c34)[nH]c12 [OSI-027] (partner 0.5 µM)
Reply | 0.254
